Tested on: U251 CNS
Assay: NCI-60 one-dose screen, 48 h (100 = growth as untreated, 0 = no growth, -100 = all killed)
Conditions: 10 µM unless noted
The panel holds about 83,000 compounds, 20% with a hit somewhere; the sample as a whole holds those more often.
Quick list: growth per entry.
Write the value in % as a bare number.

Guide cases for growth, answers given:
{"Molecule": "Cc1ccc2nc(/C(C#N)=C(/CCCO)NC(Cc3ccccc3)C(=O)OCc3ccccc3)[nH]c(=O)c2c1 (configuration not stated)", "Target System": "U251 CNS", "Test Result": 104}
{"Molecule": "COC(=O)N1CC(Oc2ccccn2)C2CC1c1ccccc1O2 (configuration not stated)", "Target System": "U251 CNS", "Test Result": 104}
{"Molecule": "O=C(/C=C/c1ccccc1)c1ccc(Nc2nc(Nc3ccc(F)cc3)nc(Nc3ccc(Cl)cc3)n2)cc1", "Target System": "U251 CNS", "Test Result": 78.9}
{"Molecule": "COc1ccc(Nc2ncccc2/C=C/C(=O)c2cc(OC)c(OC)c(OC)c2)cc1", "Target System": "U251 CNS", "Test Result": -95.8}
{"Molecule": "C[n+]1ccc(CCc2c[nH]c3ccccc23)cc1", "Target System": "U251 CNS", "Test Result": 95.2}
{"Molecule": "Cc1nc2ccccc2c(/C=C/c2ccccc2)c1C(=O)/C=C/c1ccccc1", "Target System": "U251 CNS", "Test Result": -25.3}

Requested read-out: growth. Entry: `C=C1C(=O)O[C@H]2[C@H]1CC/C(COC(=O)/C=C\C(=O)NCc1ccc(Cn3c(=O)sn(CCCCC)c3=O)cc1)=C\CC[C@@]1(C)O[C@@H]21`
84.4

So what does the record say about growth for `Cc1ccc(-c2nc(SCc3nc4cc(Cl)c(Cl)cc4[nH]3)[nH]c(=O)c2C#N)cc1` ?
98.7

What does the record list as growth for `Cc1ccc(S(=O)(=O)N2CCC(=O)c3ccccc32)cc1` ?
49.4

Fill blank: measured growth of the molecule `O=C(CC(=O)Nc1cccc(C(=O)O)c1)Nc1cccc(C(=O)O)c1` is ____.
104

Fill blank: measured growth of the molecule `CC1(C)CC[C@]2(C(=O)N[C@H](CO)Cc3ccccc3)CC[C@]3(C)C(=CC[C@@H]4[C@@]5(C)CCCNC(C)(C)[C@@H]5CC[C@]43C)[C@@H]2C1` is ____.
68.9

Which value of growth has been reported for N#Cc1cccc(C2C3=C(COC3=O)N(CCO)c3cc4c(cc32)CCC4)c1 (configuration not stated) in the records?
14.6

---

Test system: ACHN renal
Assay: NCI-60 one-dose screen, 48 h
Conditions: 10 µM unless noted
About 83,000 compounds went through this panel and 20% of them were active in at least one assay; those are over-represented in the sample as a whole. Calls of active or inactive are those of the source. How the source made its calls: active means growth percent below 10; inactive means the rest.
Pick from active, inactive when you respond.

{"Molecule": "O=C(CSc1nc(-c2ccccc2)cc(=O)[nH]1)Nc1nc(-c2ccccc2)cs1", "Target System": "ACHN renal", "Class": "inactive"}
{"Molecule": "CN1CCN(C(=O)C(C)(C)c2ccc(C(=O)Nc3cn4cc(-c5ccncc5)ccc4n3)cc2)CC1", "Target System": "ACHN renal", "Class": "active"}

Returns: the outcome recorded for `CCOC(=O)c1c(C)nc2c(c1N)/C(=C/c1ccc(OC)cc1)C(=O)N2Cc1ccccc1` in this assay.
inactive

State the result this test recorded for `CCCCC#Cc1c(I)n(C)c(=O)[nH]c1=O` .
active

What is the recorded call for this molecule in the test? `O=C(/C=C/c1ccccc1)c1ccc(Nc2nc(Nc3ccc(F)cc3)nc(Nc3ccc(Cl)cc3)n2)cc1`
inactive

Write down the call the test reported for this molecule. Item: `Oc1c(CN2CCCC2)cc(CSCc2ccccc2)c2cccnc12`
active

Hi team, can someone confirm the assay call for N#CC1CCc2c(c(-c3ccc4nc(N)sc4c3)nc3ccc4[nH]ncc4c23)C1 (stereo not given) ?
inactive

Answer briefly: the call reported for `COc1ccc(Oc2nc(Nc3ccc(N4CCOCC4)cc3)ncc2NC(=O)Nc2cc(OC)cc(OC)c2)cc1` in this assay.
inactive

Tell me the assay call for `CCc1n(Cc2ccc3ccccc3n2)cc[n+]1Cc1ccc2ccccc2n1` please.
inactive

What did this assay record as the result for `C=C(C)[C@@H]1CCC[C@]2(C(=O)N3CCN(C)CC3)CC[C@]3(C)[C@@H](CC[C@@H]4[C@@]5(C)CC/C(=N\NC(=O)c6ccncc6)C(C)(C)[C@@H]5CC[C@]43C)[C@@H]12` ?
inactive

Name the outcome recorded for `O=C(Nc1ncc(Cc2ccccc2)s1)c1ccc2c(c1)OCCCO2` in the assay.
inactive

I'd appreciate the recorded outcome for `Cc1ccc(CNc2ccc3nc(CCC(C)C)[nH]c3c2)cc1` from this test.
inactive

Record request — test call for `COc1cccc(NCc2nnc(Nc3ccc(Cl)cc3)c3ccccc23)c1`
active

Which outcome did this test record for the molecule Cn1c2c(c3ccc(Cl)c(Cl)c31)C(C#N)C(C)(C)NC2=O (stereo not given) ?
inactive

Status in this test for `CN(C)c1ccc(-c2nc(-c3ccccc3)c(-c3ccccc3)[nH]2)cc1` ?
inactive

Status in this test for `NC(=O)c1cccc([C@@H]2O[C@H](CO)[C@@H](O)[C@H]2O)c1` ?
inactive

Identify the outcome logged in this assay for the molecule shown: `C[C@@H]1O[C@@H](O[C@@H]2C[C@H](c3ccc4c(c3O)C(=O)C3=C(C4=O)[C@@]4(O)C(=O)C[C@](C)(O)C[C@@]4(O)C=C3)O[C@H](C)[C@H]2O)CC[C@@H]1O[C@H]1C[C@@H](O)[C@H](O)[C@@H](C)O1`
inactive

Hi team, can someone confirm the assay call for `O=C(Nc1ccccc1[N+](=O)[O-])c1ccc(Cl)c(Cl)c1` ?
inactive

Hi, do you know how `Clc1ccc(-c2cc(-c3ccccc3)nc(NCCNc3ccnc4cc(Cl)ccc34)n2)cc1` came out in this test?
inactive

Hey, what did the test say about `O=C(/C=C/c1ccc(Oc2ccc(Br)cc2)cc1)c1ccc(Br)cc1` ?
inactive
